Data provenance is ChEMBL document CHEMBL4732162.

biological target: Epidermal growth factor receptor (Homo sapiens, UniProt P00533, L858R/T790M); experiment: Inhibition of EGFR L858R/T790M (unknown origin) by mobility shift assay
Sequence (P00533 25-1210 T790M/L858R limits assumed): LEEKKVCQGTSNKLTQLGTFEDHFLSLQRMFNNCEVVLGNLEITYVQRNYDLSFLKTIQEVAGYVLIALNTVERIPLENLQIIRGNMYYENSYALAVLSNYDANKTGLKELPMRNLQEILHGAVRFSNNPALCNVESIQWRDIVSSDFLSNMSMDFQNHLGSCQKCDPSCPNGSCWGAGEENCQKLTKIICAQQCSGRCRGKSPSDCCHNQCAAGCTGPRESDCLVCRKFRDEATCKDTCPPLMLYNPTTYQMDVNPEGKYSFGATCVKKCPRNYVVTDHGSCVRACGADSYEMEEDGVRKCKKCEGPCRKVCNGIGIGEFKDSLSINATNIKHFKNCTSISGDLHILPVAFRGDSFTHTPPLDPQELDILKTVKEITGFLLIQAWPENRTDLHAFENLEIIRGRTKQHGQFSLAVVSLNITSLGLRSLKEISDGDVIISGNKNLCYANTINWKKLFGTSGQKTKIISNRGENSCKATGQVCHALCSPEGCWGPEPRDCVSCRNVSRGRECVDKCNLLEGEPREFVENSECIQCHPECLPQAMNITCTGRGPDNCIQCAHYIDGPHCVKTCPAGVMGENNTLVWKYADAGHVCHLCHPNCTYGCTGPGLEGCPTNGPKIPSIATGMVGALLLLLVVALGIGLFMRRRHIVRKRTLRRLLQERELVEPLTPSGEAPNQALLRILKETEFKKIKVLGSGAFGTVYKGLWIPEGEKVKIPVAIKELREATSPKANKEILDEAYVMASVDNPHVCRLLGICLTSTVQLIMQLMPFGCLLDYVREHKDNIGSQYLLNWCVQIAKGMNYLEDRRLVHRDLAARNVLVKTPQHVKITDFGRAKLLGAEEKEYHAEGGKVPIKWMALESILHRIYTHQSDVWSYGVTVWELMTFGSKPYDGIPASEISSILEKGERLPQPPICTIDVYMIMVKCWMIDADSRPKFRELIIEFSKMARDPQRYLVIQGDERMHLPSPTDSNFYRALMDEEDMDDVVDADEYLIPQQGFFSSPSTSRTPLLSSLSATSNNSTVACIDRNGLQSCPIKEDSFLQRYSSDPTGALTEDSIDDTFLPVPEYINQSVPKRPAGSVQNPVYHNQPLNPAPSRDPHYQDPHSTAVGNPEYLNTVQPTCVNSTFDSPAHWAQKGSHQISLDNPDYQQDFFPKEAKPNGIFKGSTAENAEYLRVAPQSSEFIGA
measure: IC50 (nM)
Give the value, in units of nM, as a plain number.

// known answers, use as guide
# structure_notation, tgt, IC50 [nM]
data = [
    ("C=CC(=O)Nc1cc2c(Nc3ccc(F)c(Cl)c3)ncnc2cc1OCc1cn(CCCC(=O)NO)nn1", "Epidermal growth factor receptor (Homo sapiens, UniProt P00533, L858R/T790M)", 1.5),
    ("C=CC(=O)Nc1cc2c(Nc3cccc(Cl)c3F)ncnc2cc1OCc1cn(CCC(=O)NO)nn1", "Epidermal growth factor receptor (Homo sapiens, UniProt P00533, L858R/T790M)", 8.3),
]

## Task Give the reported value of IC50 for this record: C=CC(=O)Nc1cc2c(Nc3ccc(F)c(Cl)c3)ncnc2cc1OCc1cn(CCC(=O)NO)nn1
## Result 2.3

## Task Item C=CC(=O)Nc1cc2c(Nc3ccc(OCc4cccc(F)c4)c(Cl)c3)ncnc2cc1OCc1cn(CCCCC(=O)NO)nn1 : provide IC50
## Result 14

* * *

biological target: Histone deacetylase 1 (Homo sapiens, UniProt Q13547)
Sequence (Q13547 whole entry): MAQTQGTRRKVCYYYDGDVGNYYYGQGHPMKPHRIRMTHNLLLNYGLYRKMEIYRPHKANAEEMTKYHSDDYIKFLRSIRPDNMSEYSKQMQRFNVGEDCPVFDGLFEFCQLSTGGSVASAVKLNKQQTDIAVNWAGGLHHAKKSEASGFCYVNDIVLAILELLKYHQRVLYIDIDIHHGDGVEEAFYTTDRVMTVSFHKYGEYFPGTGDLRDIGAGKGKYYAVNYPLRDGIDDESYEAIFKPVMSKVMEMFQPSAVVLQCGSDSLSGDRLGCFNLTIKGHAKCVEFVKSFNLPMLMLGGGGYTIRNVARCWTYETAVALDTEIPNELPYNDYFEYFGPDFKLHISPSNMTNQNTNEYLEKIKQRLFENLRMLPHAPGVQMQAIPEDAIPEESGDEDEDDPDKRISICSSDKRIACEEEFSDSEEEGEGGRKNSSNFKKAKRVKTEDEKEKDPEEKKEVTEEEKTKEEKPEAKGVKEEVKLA
measure: pIC50
Just the number, please; pIC50 means minus log10 of the concentration in mol/L.

# structure_notation, tgt, measure, reading
records = [
    ("C=CC(=O)Nc1cc2c(Nc3ccc(F)c(Cl)c3)ncnc2cc1OCc1cn(CCCCC(=O)NO)nn1", "Histone deacetylase 1 (Homo sapiens, UniProt Q13547)", "pIC50", 6.53),
]

Now look at this one.
## Task Respond only with pIC50 recorded for C=CC(=O)Nc1cc2c(Nc3ccc(F)c(Cl)c3)ncnc2cc1OCc1cn(CCC(=O)NO)nn1
## Result 7.03

* * *

Here's what we have: pIC50 numbers for Epidermal growth factor receptor (Homo sapiens).
In plain terms, pIC50 is the concentration in mol/L turned into minus its base-10 logarithm.

## Task Give reported pIC50 for C=CC(=O)Nc1cc2c(Nc3cccc(Cl)c3F)ncnc2cc1OCc1cn(CCC(=O)NO)nn1 (Epidermal growth factor receptor (Homo sapiens))
## Result 9.47

## Task Provide the reported pIC50 (system: Epidermal growth factor receptor (Homo sapiens)) for C=CC(=O)Nc1cc2c(Nc3cccc(Cl)c3F)ncnc2cc1OCc1cn(CCCCC(=O)NO)nn1
## Result 9.36

## Task Quote pIC50 with test system Epidermal growth factor receptor (Homo sapiens) for C=CC(=O)Nc1cc2c(Nc3ccc(F)c(Cl)c3)ncnc2cc1OCc1cn(CCCC(=O)NO)nn1
## Result 9.46

## Task Give pIC50 for this entry on Epidermal growth factor receptor (Homo sapiens): C=CC(=O)Nc1cc2c(Nc3ccc(OCc4cccc(F)c4)c(Cl)c3)ncnc2cc1OCc1cn(CCCCC(=O)NO)nn1
## Result 8.82

## Task Using Epidermal growth factor receptor (Homo sapiens) as the test system, report measured pIC50 of C=CC(=O)Nc1cc2c(Nc3ccc(F)c(Cl)c3)ncnc2cc1OCc1cn(CCC(=O)NO)nn1 .
## Result 9.48
